src = patent US20160067347A1

Biological target: rat APJ receptor (Rattus norvegicus)
Construct: expressed in transfected cells; CHO is named only for the cAMP assay
Sequence (Q9JHG3 1-377): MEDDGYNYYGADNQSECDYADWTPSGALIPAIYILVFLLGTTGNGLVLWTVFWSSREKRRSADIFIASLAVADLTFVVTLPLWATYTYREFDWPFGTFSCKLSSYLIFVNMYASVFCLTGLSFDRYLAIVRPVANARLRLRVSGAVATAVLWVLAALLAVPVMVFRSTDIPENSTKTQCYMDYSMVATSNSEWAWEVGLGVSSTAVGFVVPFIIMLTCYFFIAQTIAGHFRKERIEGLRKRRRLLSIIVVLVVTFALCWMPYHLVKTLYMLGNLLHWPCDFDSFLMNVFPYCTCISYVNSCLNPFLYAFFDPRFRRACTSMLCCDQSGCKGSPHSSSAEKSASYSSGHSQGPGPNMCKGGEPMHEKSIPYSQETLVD
Experiment: [35S]GTPγS assay, membranes from stable cell lines, rat APJ
Type: biochemical
Details: FIG. 13; PEGylated bis-peptides on low molecular weight monodispersed PEG
*1 amine or outer side, *2 acyl side, *3 side chain or, on linkers, in order; H or OH if unused. Primed or numbered codes have the meaning given here. Where no end group is shown, it is not given here. [ ]: non-standard residue; d: D form. Atz = (S)-2-amino-3-(1H-1,2,3-triazol-4-yl)propanoyl residue, substituent (PEG) on triazole N1, O=C([C@H](Cc1cn([*:3])nn1)N[*:1])[*:2]; Oic = O=C(O)[C@@H]1C[C@@H]2CCCC[C@@H]2N1; Phe(4-Cl) = N[C@@H](Cc1ccc(Cl)cc1)C(=O)O; hArg = N=C(N)NCCCC[C@H](N)C(=O)O; Cha = N[C@@H](CC1CCCCC1)C(=O)O; PEG23′ = not defined here; PEG35′ = not defined here; PEG47′ = not defined here; Nle = CCCC[C@H](N)C(=O)O
result_type: potency relative to monopeptide (SEQ ID NO: 494)

SEQ ID NO: 134: PEGylated bis-peptide, 1 kDa PEG conjugate ([PEG23′][Atz]KFRRQRP[hArg][Cha]SHKG[Oic][Nle]P[Phe(4-Cl)]; not fully specified (residue 1); numbers in words are those of the source; also: bis-peptide: two peptide chains joined through PEG23 on Atz) : increased potency
SEQ ID NO: 136: PEGylated bis-peptide, 2.2 kDa PEG conjugate ([PEG47′][Atz]KFRRQRP[hArg][Cha]SHKG[Oic][Nle]P[Phe(4-Cl)]; not fully specified (residue 1); numbers in words are those of the source; also: bis-peptide: two peptide chains joined through PEG47 on Atz) : increased potency
SEQ ID NO: 135: PEGylated bis-peptide, 1.7 kDa PEG conjugate ([PEG35′][Atz]KFRRQRP[hArg][Cha]SHKG[Oic][Nle]P[Phe(4-Cl)]; not fully specified (residue 1); numbers in words are those of the source; also: bis-peptide: two peptide chains joined through PEG35 on Atz) : increased potency
